measured-on: T1, Murine APRIL (mouse, UniProt Q9D777 105-241, limits assumed)
T1 sequence (looked up): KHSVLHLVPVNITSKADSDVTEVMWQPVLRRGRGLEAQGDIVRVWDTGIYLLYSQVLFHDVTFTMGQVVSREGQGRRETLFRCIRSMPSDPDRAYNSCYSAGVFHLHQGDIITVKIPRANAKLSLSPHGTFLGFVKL
assay-notes: NNS library, phage display;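 note: ligand versus display occurrence-to-degeneracy ratio and higher means enriched by binding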
Would you mind telling me the reported F' APRIL of each entry?
Note: the reply should be a number with no unit written.

Look up F' APRIL: SLSCRKEQGKIYDHLLRDCISCASICGQHPKQCAYFCENKLR (receptor, phage library variant, format as m9) [TACI_d2 F78I]
7

Look up F' APRIL: SLSCRKEQGKFRDHLLRDCISCASICGQHPKQCAYFCENKLR (receptor, phage library variant, format as m9) [TACI_d2 Y79R]
0

Look up F' APRIL: SLSCRKEQGKFYDHLLLDCISCASICGQHPKQCAYFCENKLR (receptor, phage library variant, format as m9) [TACI_d2 R84L]
3

Look up F' APRIL: SLSCRKEQGKFYDHLLIDCISCASICGQHPKQCAYFCENKLR (receptor, phage library variant, format as m9) [TACI_d2 R84I]
0

Look up F' APRIL: SLSCRKEQGKFYDHLLRDCISCASSCGQHPKQCAYFCENKLR (receptor, phage library variant, format as m9) [TACI_d2 I92S]
0

Look up F' APRIL: SLSCRKEQGKFYDHLLRDCISCASKCGQHPKQCAYFCENKLR (receptor, phage library variant, format as m9) [TACI_d2 I92K]
0
